Test: Cmax in Swiss albino mouse at 3 mg/kg, iv
Assay type: ADME, organism-based
Set-up: dose 3 mg/kg, route intravenous
Details: in vivo
Is Cmax at least 8 µM? Then true (1). If not, false (0).

Solved cases (3 shown):
record_smiles=CCCCNc1ncc2c(-c3ccc(CN4CCN(C)CC4)cc3)cn([C@H]3CC[C@H](O)CC3)c2n1 class="false (0)"
record_smiles=CCCCNc1ncc2c(-c3ccc(S(=O)(=O)N4CCOCC4)cc3)nn([C@H]3CC[C@H](O)CC3)c2n1 class="true (1)"
record_smiles=CN1CCN(S(=O)(=O)c2ccc(-c3cn([C@H]4CC[C@H](O)CC4)c4nc(NCCC5CC5)ncc34)c(F)c2)CC1 class="false (0)"

**Q:** Could you verify whether the entry CN1CCN(Cc2ccc(-c3cn([C@H]4CC[C@H](O)CC4)c4nc(NCCC5CC5)ncc34)cc2)CC1 shows Cmax of no less than 8 µM?
**A:** false (0)

====

Biological target: Mast/stem cell growth factor receptor Kit (Homo sapiens, UniProt P10721)
Sequence (P10721 whole entry): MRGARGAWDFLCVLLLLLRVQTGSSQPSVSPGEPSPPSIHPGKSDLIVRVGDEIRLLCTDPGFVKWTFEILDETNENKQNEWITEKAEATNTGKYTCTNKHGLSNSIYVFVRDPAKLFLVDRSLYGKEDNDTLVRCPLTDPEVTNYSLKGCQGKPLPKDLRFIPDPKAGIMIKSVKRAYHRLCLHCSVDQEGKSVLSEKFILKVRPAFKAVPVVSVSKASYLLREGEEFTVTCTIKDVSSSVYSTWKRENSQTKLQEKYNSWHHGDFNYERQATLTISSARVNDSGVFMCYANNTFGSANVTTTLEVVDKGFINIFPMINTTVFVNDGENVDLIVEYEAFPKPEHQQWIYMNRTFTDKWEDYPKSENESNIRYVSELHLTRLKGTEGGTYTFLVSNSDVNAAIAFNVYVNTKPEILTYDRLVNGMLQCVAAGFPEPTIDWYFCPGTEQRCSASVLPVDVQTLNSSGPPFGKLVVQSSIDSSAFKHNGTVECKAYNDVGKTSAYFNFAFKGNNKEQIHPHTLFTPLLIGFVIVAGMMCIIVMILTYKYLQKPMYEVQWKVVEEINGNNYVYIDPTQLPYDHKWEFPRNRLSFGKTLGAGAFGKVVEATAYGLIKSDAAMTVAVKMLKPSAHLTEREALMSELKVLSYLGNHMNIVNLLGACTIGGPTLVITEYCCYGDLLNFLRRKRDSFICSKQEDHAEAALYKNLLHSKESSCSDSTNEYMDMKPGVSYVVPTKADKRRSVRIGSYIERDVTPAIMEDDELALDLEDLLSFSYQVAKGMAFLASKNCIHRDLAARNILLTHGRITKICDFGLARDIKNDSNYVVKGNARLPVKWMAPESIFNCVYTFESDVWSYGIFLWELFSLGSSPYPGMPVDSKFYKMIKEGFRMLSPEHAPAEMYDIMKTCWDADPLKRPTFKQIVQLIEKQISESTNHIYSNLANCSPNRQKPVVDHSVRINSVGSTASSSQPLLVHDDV
Quantity measured: IC50 (nM)
Give the number; nM is assumed, so skip it.

The recorded IC50 with Mast/stem cell growth factor receptor Kit (Homo sapiens, UniProt P10721) for CCCCNc1ncc2c(-c3ccc(CN4CCN(C)CC4)cc3)cn([C@H]3CC[C@H](O)CC3)c2n1 was 8.18

====

Assay: Cmax in Swiss albino mouse at 3 mg/kg, po
Type: ADME, organism-based
Set-up: dose 3 mg/kg, route oral
Conditions: in vivo
Quantity measured: Cmax (µM)
Give the number; µM is assumed, so skip it.

// below: answered compounds
record_smiles=CN1CCN(Cc2ccc(-c3cn([C@H]4CC[C@H](O)CC4)c4nc(NCCC5CC5)ncc34)cc2)CC1 quantity_measured=Cmax readout_unit=µM result_number=1.3
record_smiles=CN1CCN(S(=O)(=O)c2ccc(-c3cn([C@H]4CC[C@H](O)CC4)c4nc(NCCC5CC5)ncc34)c(F)c2)CC1 quantity_measured=Cmax readout_unit=µM result_number=0.42
record_smiles=CCCCNc1ncc2c(-c3ccc(S(=O)(=O)N4CCOCC4)cc3)nn([C@H]3CC[C@H](O)CC3)c2n1 quantity_measured=Cmax readout_unit=µM result_number=0.013
record_smiles=CCCCNc1ncc2c(-c3ccc(S(=O)(=O)N4CCOCC4)cc3)cn([C@H]3CC[C@H](O)CC3)c2n1 quantity_measured=Cmax readout_unit=µM result_number=0.16

Consider the additional compound presented here.
Cmax measured on CCCCNc1ncc2c(-c3ccc(CN4CCN(C)CC4)cc3)cn([C@H]3CC[C@H](O)CC3)c2n1 = 1.6

====

System: Mus musculus
Assay: Oral bioavailability in Swiss albino mouse at 3 mg/kg
Type: ADME, organism-based
Details: in vivo
Measured F of individual entries
The answer should read as a number with its unit following.

record_smiles=CN1CCN(Cc2ccc(-c3cn([C@H]4CC[C@H](O)CC4)c4nc(NCCC5CC5)ncc34)cc2)CC1 test_system="Mus musculus" result=78%

F measured on CCCCNc1ncc2c(-c3ccc(CN4CCN(C)CC4)cc3)cn([C@H]3CC[C@H](O)CC3)c2n1 = 100%

====

Experiment: Volume of distribution at steady state in Swiss albino mouse at 3 mg/kg, iv
Format: ADME, organism-based
Design: dose 3 mg/kg, route intravenous
Settings: in vivo, read-out: Vdss
Vd vs 0.8 L/kg: less than gives Met; not less than gives Not met.

record_smiles=CN1CCN(Cc2ccc(-c3cn([C@H]4CC[C@H](O)CC4)c4nc(NCCC5CC5)ncc34)cc2)CC1 class="Not met"
record_smiles=CN1CCN(S(=O)(=O)c2ccc(-c3cn([C@H]4CC[C@H](O)CC4)c4nc(NCCC5CC5)ncc34)c(F)c2)CC1 class="Not met"
record_smiles=CCCCNc1ncc2c(-c3ccc(S(=O)(=O)N4CCOCC4)cc3)nn([C@H]3CC[C@H](O)CC3)c2n1 class=Met

Continue with the compound presented below.
**Q:** For this compound, is Vd lower than 0.8 L/kg? CCCCNc1ncc2c(-c3ccc(CN4CCN(C)CC4)cc3)cn([C@H]3CC[C@H](O)CC3)c2n1
**A:** Not met
